# assay comment: Pharmacokinetic assessment - abuse quotient (plasma Cmax, Tmax, AUC0-last, AQ)
# setup conditions: both, human, plasma, oral, 30 mg
endpoint label: AUC(0-t) (ng·h/mL)
Value expressed in ng·h/mL; do not type the unit.

Fill in reported AUC(0-t) for this entry: COc1ccc2c3c1O[C@H]1C(=O)CC[C@@]4(O)[C@@H](C2)N(C)CC[C@]314.Cl [IR Oxycodone, oxycodone hydrochloride]
216

====

# assay comment: Pharmacokinetic assessment - abuse quotient (plasma Cmax, Tmax, AUC0-last, AQ)
# setup conditions: both, human, plasma, oral, 60 mg
endpoint label: Cmax (µg/mL)
Value expressed in µg/mL; do not type the unit.

Fill in reported Cmax for this entry: COc1ccc2c3c1O[C@H]1C(=O)CC[C@@]4(O)[C@@H](C2)N(C)CC[C@]314.Cl [IR Oxycodone, oxycodone hydrochloride]
0.132

====

# assay comment: Pharmacokinetic assessment - abuse quotient (plasma Cmax, Tmax, AUC0-last, AQ)
# setup conditions: both, human, plasma, oral, 30 mg
endpoint label: Cmax (ng/mL)
Value expressed in ng/mL; do not type the unit.

Fill in reported Cmax for this entry: COc1ccc2c3c1O[C@H]1C(=O)CC[C@@]4(O)[C@@H](C2)N(C)CC[C@]314.Cl [IR Oxycodone, oxycodone hydrochloride]
65.8
